Kindly state z-score for each of the entries shown.
# test name: DUSP6 inhibitors restoring Erk phosphorylation by chemical complementation, primary imaging in DUSP6-transfected HeLa (AID 609)
# assay context: HeLa MKP-3 transfected, phospho-Erk imaging KS statistic; measured here: nuclear pErk red intensity z-score; at 10 µM; stronger effect = higher value; cells stimulated with TPA for 15 min

Problem: Quick one: z-score of Cn1cc(Cl)nc1C(O)c1ccccc1 (stereo unspecified) ?
Solution: -0.497

Problem: Quick one: z-score of CC(C)(C)c1cc(-c2ccco2)c(C#N)c(SCC#N)n1 ?
Solution: 0.596

Problem: Quick one: z-score of CCCCc1nc2sc3c(c2c(=O)[nH]1)CCC3 ?
Solution: -0.126

Problem: Quick one: z-score of COC(=O)c1sc(NC(=O)c2oc3ccccc3c2C)nc1C ?
Solution: -0.214

Problem: Quick one: z-score of Nc1nc2n(n1)C(c1cccs1)CC(c1ccc(F)cc1)N2 (stereo unspecified) ?
Solution: -0.128

Problem: Quick one: z-score of CCOC(=O)C1=C(N)n2c(s/c(=C\c3ccco3)c2=O)=C(C(=O)OC(C)C)C1c1ccco1 (stereo unspecified) ?
Solution: 1.18

Problem: Quick one: z-score of Cc1nn(CCO)c2c1C(=O)CCC2 ?
Solution: -0.238

Problem: Quick one: z-score of CC(C)OC(=O)c1c2nc3ccccc3nc2n2c1[nH]c(=O)c1ccccc12 ?
Solution: -0.702

Problem: Quick one: z-score of O=C(NCCCNCc1ccccc1)/C(=N\O)c1ccccc1 ?
Solution: 0.402

Problem: Quick one: z-score of CCCCOc1ccc(C(=O)NCC(=O)NCC(=O)OCC)cc1 ?
Solution: -0.573

Problem: Quick one: z-score of CCCSc1nnc(NC(=O)Nc2ccc(F)cc2)s1 ?
Solution: -0.511

Problem: Quick one: z-score of N#Cc1c2c(c(-c3ccco3)[nH]c1=O)CCCC2 ?
Solution: 0.409

Problem: Quick one: z-score of Cc1c(C2CC(=O)N(c3ccccc3)C2=O)[nH]n(-c2ccccc2)c1=O (stereo unspecified) ?
Solution: 0.084

Problem: Quick one: z-score of CCc1nc(NCC(C)C)c(C#N)c2c1COC(C)(C)C2 ?
Solution: 2.22

Problem: Quick one: z-score of Clc1ccc(-n2ncc3c(NCc4ccco4)ncnc32)cc1 ?
Solution: 0.00112

Problem: Quick one: z-score of S=c1[nH]nc(-c2ccco2)n1C1CCCCC1 ?
Solution: -1.13

Problem: Quick one: z-score of O=C1CC(c2ccccc2)n2nc(N3C(=O)c4ccccc4C3=O)nc2N1 (stereo unspecified) ?
Solution: -0.686

Problem: Quick one: z-score of O=C1c2ccccc2C(=O)N1CC1c2ccccc2CCN1C(=O)N1CCOCC1 (stereo unspecified) ?
Solution: 0.969

Problem: Quick one: z-score of C=CCNc1nc(N2CCCCC2)c(C#N)c2c1CN(Cc1ccccc1)CC2 ?
Solution: -0.89

Problem: Quick one: z-score of CCn1c(SCC(=O)NCc2ccco2)nnc1-c1ccc(N)cc1 ?
Solution: -0.177

Problem: Quick one: z-score of Cc1cc(CCC(=O)O)c(C)cc1CCC(=O)O ?
Solution: -0.56

Problem: Quick one: z-score of Cc1nnc2n(-c3ccccc3)c(=O)c3c4c(sc3n12)COC(C)(C)C4 ?
Solution: -0.749

Problem: Quick one: z-score of COc1cccc(C=NCCNC(=O)c2nonc2N)c1O ?
Solution: -0.971

Problem: Quick one: z-score of C=CCOc1ccc(/C(O)=C2/C(=O)C(=O)N(CCCN3CCOCC3)C2c2ccc(OC)cc2)cc1 (stereo unspecified) ?
Solution: 0.613

Problem: Quick one: z-score of Nc1nnnn1/N=C/c1cccs1 ?
Solution: -0.836

Problem: Quick one: z-score of Cc1ccc(C(=O)C2=C(O)C(=O)N(CCN3CCOCC3)C2c2ccccn2)o1 (stereo unspecified) ?
Solution: -0.257

Data origin, for the record: PubChem BioAssay
